- TARGET ENTITY: human CRTH2 (Homo sapiens, UniProt Q9Y5Y4)
- Sequence (Q9Y5Y4 whole entry): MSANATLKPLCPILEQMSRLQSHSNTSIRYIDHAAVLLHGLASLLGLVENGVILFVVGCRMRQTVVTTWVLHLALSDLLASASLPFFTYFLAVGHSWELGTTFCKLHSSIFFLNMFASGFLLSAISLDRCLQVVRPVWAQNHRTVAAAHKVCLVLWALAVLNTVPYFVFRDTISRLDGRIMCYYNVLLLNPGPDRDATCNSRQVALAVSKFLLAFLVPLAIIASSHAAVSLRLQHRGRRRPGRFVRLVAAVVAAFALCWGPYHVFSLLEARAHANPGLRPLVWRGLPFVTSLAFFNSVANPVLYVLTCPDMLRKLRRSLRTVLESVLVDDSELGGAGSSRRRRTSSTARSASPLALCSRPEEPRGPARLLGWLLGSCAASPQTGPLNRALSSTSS
- ASSAY PROCEDURE: Human CRTH2 Receptor Binding Assay (whole cell, [3H]ramatroban)
- Set-up: expressed in transfected cells; host or cells: CHO-K1
- PROTOCOL CONDITIONS: whole CHO-K1 cells stably expressing human CRTH2 and G-alpha16; 20 nM [3H]ramatroban; 1 hour, room temperature
QUANTITY: IC50 (nM)

                                   compound                             target_entity  quantity  measured_result
0  Cc1c(CC(=O)O)cc2ccc(F)cc2c1C(=O)N1CCN(S(C)(=O)=O)CC1  human CRTH2 (Homo sapiens, UniProt Q9Y5Y4)      IC50             21.2
1  O=C(O)Cc1cc(OC2CCN(C(=O)c3ccccc3F)CC2)c2cc(F)ccc2c1  human CRTH2 (Homo sapiens, UniProt Q9Y5Y4)      IC50             19.4
2  Cc1c(CC(=O)O)cc2ccc(F)cc2c1C(=O)N1CCN(S(=O)(=O)c2ccc(F)cc2F)CC1  human CRTH2 (Homo sapiens, UniProt Q9Y5Y4)      IC50              3.7

A: Cc1c(CC(=O)O)cc2ccc(F)cc2c1C(=O)N1CCN(S(=O)(=O)c2cccc(F)c2)CC1
B: COc1cc(OC)cc(N2CCN(C(=O)c3c(C)c(CC(=O)O)cc4ccc(F)cc34)CC2)c1
C: Cc1c(CC(=O)O)cc2ccc(F)cc2c1C(=O)N1CCN(c2cccc(Cl)c2)CC1
D: O=C(O)Cc1cc(C(=O)N2CCN(S(=O)(=O)c3ccccc3)CC2)c2cc(OC(F)(F)F)ccc2c1
E: O=C(O)Cc1cc(OC2CCN(S(=O)(=O)c3cccc(F)c3)CC2)c2cc(F)ccc2c1
Prompt: Sort low-to-high on IC50, please. Response field: labels, in requested order.
Response: D, A, E, C, B
